System: HL-60(TB) leukemia
Assay: NCI-60 one-dose screen, 48 h
Settings: 10 µM unless noted
The panel holds about 83,000 compounds, 20% with a hit somewhere; the sample as a whole holds those more often. Calls of active or inactive are those of the source. Rule for the calls: active = growth percent below 10; inactive = the rest.
Can you answer with just one of these options? 1 = active, -1 = inactive

These solved cases illustrate the format of a correct answer.
compound | groupLabel
NC(=O)c1c(NC(=O)c2ccc(C3CCCCC3)cc2)sc2c1CCC(=O)C2 | 1
O=C1[C@@H]2Cc3c([nH]c4ccccc34)[C@H](c3ccc(Cl)cc3)N2C(=O)CN1C1CCN(Cc2ccccc2)CC1 | -1
NS(=O)(=O)c1ccc(Nc2nc(Nc3ccccc3)nc3nnc(SCC(=O)NC4CCCCC4)n23)cc1 | -1
Cc1occc1-c1nc2s/c(=C/c3ccc(-c4cc(C(F)(F)F)ccc4Cl)o3)c(=O)n2n1 | -1

Please share the test call associated with COc1ccc(CN2C(=O)/C(=C/c3nc(CO)cs3)SC2=S)cc1 .
-1

Check COC1CCN(Cc2ccc3c(NNC(=O)c4cnccn4)nc4cc(F)ccc4n23)C1 (centres undefined) too.
1
